Source of measurements: PubChem BioAssay (NCI)

System: T-47D breast
protocol-text: NCI-60 one-dose screen, 48 h (100 = growth as untreated, 0 = no growth, -100 = all killed)
cond: 10 µM unless noted
The panel holds about 83,000 compounds, 20% with a hit somewhere; the sample as a whole holds those more often. The source made the active and inactive calls. The calls were made as follows: active = growth percent below 10; inactive = the rest.

{"molecule": "CSc1nc(NCCCNc2ccnc3cc(Cl)ccc23)cc(-c2ccccc2)n1", "growth": "66.3% (inactive)"}
{"molecule": "Cc1nc2nc(N)nc(N)c2nc1C", "growth": "91.2% (inactive)"}
{"molecule": "OC(c1cc(-c2ccccc2)nc2ccc(Cl)cc12)C1CCCCN1 (stereo not given)", "growth": "19.9% (inactive)"}
{"molecule": "CCOC(=O)c1cnc2ccc(Br)cc2c1Nc1cccc(S(=O)(=O)NC)c1", "growth": "86% (inactive)"}
{"molecule": "COc1ccc(/C=c2/c(=O)[nH]c3nc4sc(C)c(C)c4c(=O)n23)cc1", "growth": "92.7% (inactive)"}
{"molecule": "CCCCN(CCCC)Cc1c(C)[nH]c2cc(OC)ccc2c1=O", "growth": "95.7% (inactive)"}
{"molecule": "Clc1ccc(-c2nnc(COc3ccccc3Cl)o2)cc1", "growth": "69.9% (inactive)"}
{"molecule": "CCOC(=O)c1c2c(n3ccc(NC(=O)CCN4CCOCC4)cc13)C(=O)c1ncccc1C2=O", "growth": "32.6% (inactive)"}
{"molecule": "COc1ccc(/C=C2\\N=C3Sc4cc(Cl)ccc4C(=O)N3C2=O)cc1", "growth": "92% (inactive)"}
{"molecule": "C=C1CC2(OC1=O)C(=O)N(CCCCCCCCCCCCN1C(=O)C3(CC(=C)C(=O)O3)c3ccccc31)c1ccccc12 (stereo not given)", "growth": "64.8% (inactive)"}
